- methodSummary: physchem
- statedConditions: organic solvent or mixture
readoutType: solubility

INPUT: Please supply the value of reported solubility for the item CCC(CC)n1c(=O)c2ccc3c4c(-c5cc6c(=O)n(C(CC)CC)c(=O)c7cc8[nH]c9cc%10c(=O)n(C(CC)CC)c(=O)c%11ccc%12c5c(c67)c8c9c%12c%11%10)cc5c(=O)n(C(CC)CC)c(=O)c6cc7[nH]c8cc(c1=O)c2c3c8c7c4c56
OUTPUT: ~5000 µg/mL

Origin of values: patent US10647732B2
